Tested on: human platelet rich plasma (PRP)
Assay Name: ADP induced platelet aggregation assay
Experimental Conditions: Homo sapiens, Platelet, 5 min, read-out: PA IC50 (μM) @ 10 μM ADP, human PRP, 10 μM ADP, AUC at 5 minute
Measured Quantity: IC50 (µM)

Test Smiles: CC1(C)CN(c2ccccc2NC(=O)Nc2ccc(OC(F)(F)F)cc2)c2c(O)c(F)cc(-c3ccc(F)cc3)c21
Measured Quantity: IC50
Measured: 0.39

Test Smiles: CC(C)n1nc(-c2c(F)cc(O)c3c2C(C)(C)CN3c2ccccc2NC(=O)Nc2csc(C(F)(F)F)n2)cc1C(F)(F)F
Measured Quantity: IC50
Measured: 0.18

Test Smiles: COc1ccc2nc(-c3ccc(O)c4c3C(C)(C)CN4c3ccccc3NC(=O)Nc3ccc(OC(F)(F)F)cc3)oc2c1
Measured Quantity: IC50
Measured: 0.48

Test Smiles: CC1(C)CN(c2ccccc2NC(=O)Nc2csc(Cl)n2)c2c(O)cc(F)c(-c3ccc(C(F)(F)F)cc3)c21
Measured Quantity: IC50
Measured: 0.05

Test Smiles: CC1(C)CN(c2ccccc2NC(=O)Nc2ccc(OC(F)(F)F)cc2)c2c(O)cc(F)c(-c3cccc(CN4CCOCC4)c3)c21
Measured Quantity: IC50
Measured: 0.93

Test Smiles: CC1(C)CN(c2ccccc2NC(=O)Nc2ccc(OC(F)(F)F)cc2)c2c(O)ccc(-c3nc4ccccc4s3)c21
Measured Quantity: IC50
Measured: 0.86

Test Smiles: Cc1ccnc2oc(-c3ccc(O)c4c3C(C)(C)CN4c3ccccc3NC(=O)Nc3ccc(OC(F)(F)F)cc3)nc12
Measured Quantity: IC50
Measured: 1.03
